Taken from ChEMBL document CHEMBL1201862.

GI50 reference
# Test system: NCI-H522
# Test name: NCI tumour cell line growth inhibition, 48 h
The source made the active and inactive calls. Rule as the data show it: active = GI50 up to about 1.1 µM and inactive = higher.

{"columns": ["Compound", "GI50"],
 "data": [
  ["Nc1c(S(=O)(=O)O)cc(S(=O)(=O)O)c2ccc(/N=N/c3ccc(/C=C/c4ccc(/N=N/c5ccc6c(S(=O)(=O)O)cc(S(=O)(=O)O)c(N)c6c5O)cc4S(=O)(=O)O)c(S(=O)(=O)O)c3)c(O)c12", "54.1 µM (inactive)"],
  ["N=C(N)NCCNC(=N)N", "> 100 µM (inactive)"],
  ["N#Cc1nc(-c2ccccn2)oc1N", "> 100 µM (inactive)"],
  ["CC1=CC(=O)C(=O)C2=C1OC1(C2)C(C)CCC2C3(C)CCC(O)C(C)(C)C3CCC21C (stereo not drawn)", "15.2 µM (inactive)"],
  ["COC(=O)CCC(=O)N1Cc2cc(C)ccc2N(C(=O)CCC(=O)OC)Cc2cc(C)ccc21", "> 100 µM (inactive)"],
  ["CC1(C)OCC2OC(n3cnc4c(N)nc(Cl)nc43)C(OS(C)(=O)=O)C2O1 (stereo not drawn)", "> 100 µM (inactive)"],
  ["O=C(/C=C/c1ccc(Oc2cc(C(=O)/C=C/c3ccc(O)cc3)c(O)cc2O)cc1)c1ccc(O)cc1O [RHUSCHALCONE II]", "4.82 µM (inactive)"],
  ["Cc1ccc2sc3cc(=O)cc(C)c-3nc2c1", "20.3 µM (inactive)"]
]}
